All figures here come from PubChem BioAssay (NCI).

Catalogue of growth inhibition readings, one per entry.
- ASSAY_OVERVIEW: NCI Yeast Anticancer Drug Screen. Data for the rad50 strain (AID 155);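 also: 0% = growth of vehicle-only cultures of the same strain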
- DETAILS: S. cerevisiae rad50 strain growth inhibition; at 50.0 µM; active compounds read high
Compounds without any hit were thinned out: in the full panel of roughly 79,000, 15% have a hit. Calls of active or inactive are those of the source. Rule as the data show it: active = growth inhibition above about 70%; inactive = the rest.

Take a look at these entries with their results.
{"COMPOUND": "O=C(O)C1CCCCN1/N=C/c1cccc([N+](=O)[O-])c1 (stereo unspecified)", "growth inhibition": "36% (inactive)"}
{"COMPOUND": "Nc1nn2c(nc(N)c3c(N)[nH]nc32)c1N=Nc1ccc(Br)cc1", "growth inhibition": "-1.35% (inactive)"}
{"COMPOUND": "O=c1[nH]nnc2cc(Cl)ccc12", "growth inhibition": "0% (inactive)"}
{"COMPOUND": "COc1cc(C(O)C2(c3ccc(O)c(OC)c3)NC(=O)NC2=O)ccc1O (stereo unspecified)", "growth inhibition": "-22.2% (inactive)"}

Request the reported growth inhibition associated with `O=C(OCc1ccccc1)c1ccccc1` 18.9% (inactive)

Request the reported growth inhibition associated with `CCOP(=O)(OCC)/C(C#N)=C/c1cnc(-c2ccccc2)[nH]1` -38% (inactive)

Request the reported growth inhibition associated with `O=C1c2ccccc2C(=O)N1C1(C(=O)O)CCCC1` -5.3% (inactive)

Request the reported growth inhibition associated with `C=C(C)C(=O)OCC(CC)(COC(=O)C(=C)C)COC(=O)C(=C)C` -9.25% (inactive)

Request the reported growth inhibition associated with `Cn1nnnc1NN(c1nnnn1C)C1C=CCC=C1` 6.4% (inactive)

Request the reported growth inhibition associated with `CCOc1ccccc1/C=C(\C#N)c1cccc(Cl)c1` 42.6% (inactive)

###

- ASSAY_OVERVIEW: NCI Yeast Anticancer Drug Screen. Data for the rad50 strain (AID 155);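 also: 0% = growth of vehicle-only cultures of the same strain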
- DETAILS: S. cerevisiae rad50 strain growth inhibition; at 50.0 µM; active compounds read high
About 79,000 compounds went through this panel and 15% of them were active in at least one assay; those are over-represented in the sample as a whole. Activity calls are given as the source filed them. Cut-off read from the data, not from the text of the source: active = growth inhibition above about 70%; inactive = the rest.
Catalogue of growth inhibition readings, one per entry.

Take a look at these entries with their results.
{"COMPOUND": "CSc1ccc(C(=C=C=C(c2ccc(SC)s2)c2ccc(SC)s2)c2ccc(SC)s2)s1", "growth inhibition": "38.7% (inactive)"}
{"COMPOUND": "Clc1ccccc1-c1nc(-c2ccncc2)no1", "growth inhibition": "23.3% (inactive)"}
{"COMPOUND": "CCOCCC(O)CC (configuration not stated)", "growth inhibition": "3.3% (inactive)"}
{"COMPOUND": "CC(C#N)N(C)c1c([N+](=O)[O-])c(=O)n(C)c(=O)n1C (configuration not stated)", "growth inhibition": "-5.85% (inactive)"}

Next compound, growth inhibition to be filled in.
Request the reported growth inhibition associated with O=C1OCC2CC1C(=O)O2 (configuration not stated) -7.65% (inactive)

###

- ASSAY_OVERVIEW: NCI Yeast Anticancer Drug Screen. Data for the cln2 rad14 strain (AID 165);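 also: 0% = growth equal to vehicle treated cultures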
- DETAILS: S. cerevisiae cln2 rad14 strain, at 50.0 µM
The panel holds about 79,000 compounds, 15% with a hit somewhere; the sample as a whole holds those more often. Calls of active or inactive are those of the source. Rule as the data show it: active = growth inhibition above about 70%; inactive = the rest.
Outcomes you can answer with include only these: active, inactive

Examples with answers:
{"COMPOUND": "CCCCCCCCN1COC2CCc3ccccc3C21 (stereo not given)", "ANSWER_LABEL": "active"}
{"COMPOUND": "CC(C)CN(CC#N)CC(C)C", "ANSWER_LABEL": "inactive"}
{"COMPOUND": "Cc1cc2c3ccccc3n(C)c2c2c1C(=O)C=CC2=O", "ANSWER_LABEL": "inactive"}
{"COMPOUND": "C1OCC(C2OCOC2C2OCOC2C2COCO2)O1 (stereo not given)", "ANSWER_LABEL": "inactive"}
{"COMPOUND": "O=C(O)COc1ccccc1F", "ANSWER_LABEL": "inactive"}

So what was the verdict on `ClCCCN1CCN(CCCCl)CC1` in this test? inactive

So what was the verdict on `[N-]=[N+]=C(C(=O)N1CCCC1=O)S(=O)(=O)c1ccccc1` in this test? inactive

###

- ASSAY_OVERVIEW: NCI Yeast Anticancer Drug Screen. Data for the mec2-1 strain (AID 157)
- DETAILS: S. cerevisiae mec2-1 strain, at 50.0 µM, active compounds read high
Compounds without any hit were thinned out: in the full panel of roughly 79,000, 15% have a hit. Calls of active or inactive are those of the source. Cut-off read from the data, not from the text of the source: active = growth inhibition above about 70%; inactive = the rest.
ENDPOINT: growth inhibition

Take a look at these entries with their results.
{"MOLECULE": "CC1=CC(=O)/C(=C\\c2ccc3c(c2)OCO3)C(C)(C)C1", "growth inhibition": "-8.45% (inactive)"}
{"MOLECULE": "C[C@]12CC[C@@H]3c4ccc(OP(=O)(O)O)cc4CC[C@H]3[C@@H]1CCC2=O", "growth inhibition": "4.9% (inactive)"}
{"MOLECULE": "CSc1ccc(NC(=O)Oc2ccc(NC(C)=O)cc2)cc1", "growth inhibition": "-0.95% (inactive)"}
{"MOLECULE": "CCC1(O)CC2C3C(C(=O)OC)=C4Nc5ccccc5C45CCN(C31)C25 (stereo not given)", "growth inhibition": "-6.3% (inactive)"}
{"MOLECULE": "COC(=O)C(C)c1cc2ccccc2[nH]1 (stereo not given)", "growth inhibition": "-8.65% (inactive)"}
{"MOLECULE": "C[Si](Cn1ccc(=O)n(C[Si](C)(c2ccccc2)c2ccccc2)c1=O)(c1ccccc1)c1ccccc1", "growth inhibition": "-7.65% (inactive)"}

Request the reported growth inhibition associated with `COC(=O)c1cc(C(=O)OC)c(C/C(=N/NC(N)=S)C(=O)Nc2ccc(Cl)c(Cl)c2)nc1C/C(=N/NC(N)=S)C(=O)Nc1ccc(Cl)c(Cl)c1` 14.9% (inactive)

Request the reported growth inhibition associated with `CN(C)/N=C\c1ccc(C(=O)O)cc1` 25.6% (inactive)

Request the reported growth inhibition associated with `CS(=O)(=O)OCCCCCCCCCOS(C)(=O)=O` -26.1% (inactive)

Request the reported growth inhibition associated with `CN(C)c1ccc(N=Nc2cc3c4ccccc4ccc3c3ccccc23)cc1` -10.2% (inactive)

Request the reported growth inhibition associated with `Nc1cccc(Br)n1` -4.9% (inactive)

###

- ASSAY_OVERVIEW: NCI Yeast Anticancer Drug Screen. Data for the bub3 strain (AID 167)
- DETAILS: S. cerevisiae bub3 mutant strain, at 50.0 µM, active compounds read high
This is part of a sample that, as a whole, favours compounds with a hit. Of some 79,000 tested, about 15% had one in any assay.
Catalogue of growth inhibition readings, one per entry.
Respond with the bare value in %.

Request the reported growth inhibition associated with `CN(C)CCOC(=O)c1cccc(CCl)c1` 25.4

###

Catalogue of growth inhibition readings, one per entry.
- ASSAY_OVERVIEW: NCI Yeast Anticancer Drug Screen. Data for the rad50 strain (AID 155);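 also: 0% = growth of vehicle-only cultures of the same strain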
- DETAILS: S. cerevisiae rad50 strain growth inhibition; at 50.0 µM; active compounds read high
This is part of a sample that, as a whole, favours compounds with a hit. Of some 79,000 tested, about 15% had one in any assay.
Respond with the bare value in %.

{"COMPOUND": "C1=NC(c2ccccc2)=CN(C2CCCCC2)C1(c1ccccc1)C1CCCCC1 (stereo not drawn)", "RECORDED_MEASUREMENT": 97.1}
{"COMPOUND": "Cc1cc(C)c(C#N)c(SC(C(=O)NC(C)(C)C)c2ccccc2)n1 (stereo not drawn)", "RECORDED_MEASUREMENT": 2.25}
{"COMPOUND": "O=C(O)C1Cc2c([nH]c3ccccc23)C(c2cccs2)N1 (stereo not drawn)", "RECORDED_MEASUREMENT": 27.7}

Next compound, growth inhibition to be filled in.
Request the reported growth inhibition associated with `Nc1cn[nH]c(=O)n1` -3.6

###

- ASSAY_OVERVIEW: NCI Yeast Anticancer Drug Screen. Data for the bub3 strain (AID 167)
- DETAILS: S. cerevisiae bub3 mutant strain, at 50.0 µM, active compounds read high
About 79,000 compounds went through this panel and 15% of them were active in at least one assay; those are over-represented in the sample as a whole.
Outcome: Satisfied for growth inhibition of at least -20%; Not satisfied for anything lower.

Determine whether measured growth inhibition meets or exceeds -20% for `N=C(N)N1CCc2ccccc2C1` Not satisfied

Determine whether measured growth inhibition meets or exceeds -20% for `O=C(NCN1CCOCC1)Nc1ccccc1` Satisfied

Determine whether measured growth inhibition meets or exceeds -20% for `Cn1c(=O)c2[nH]c(N(CCO)CCO)nc2n(C)c1=O` Satisfied

Determine whether measured growth inhibition meets or exceeds -20% for `C=C1CCCCCCCCC/C=C/1SCCCSC` Satisfied

Determine whether measured growth inhibition meets or exceeds -20% for `O=C(O)CCCCc1ccc2ccccc2c1` Satisfied
